Tested on: RPMI-8226
Measurement protocol: NCI tumour cell line growth inhibition, 48 h
The source made the active and inactive calls. Cut-off read from the data, not from the text of the source: active = GI50 up to about 1.1 µM and inactive = higher.
// allowed return values: 1 = active, -1 = inactive

Example cases with answers are listed next.
Molecule	Discrete label
CC1CCC[P+](Cc2ccccc2)(c2ccccc2)CC1 (centres undefined)	-1
CC1CNC(c2cccc(OCc3ccc(COc4cccc(C5=NC(C)CN5)c4)cc3)c2)=N1 (centres undefined)	-1
COC(=O)C(/C(=N\O)C(=O)Nc1ccc(Br)cc1)c1nc2ccccc2nc1O (centres undefined)	-1
CCOC(=O)c1cc(-c2ccc(OC)c(OC)c2)cn1C	-1
CCN(CC)c1ccc2c(c1)Oc1ccc(N(CC)CC)cc1C21Oc2ccccc2-c2c1c1ccccc1n2CC (centres undefined)	1
O=C1NC(=S)NC(=O)C1=Cc1ccc(-c2ccccc2)cc1	-1
COc1ccc2nc3cc([N+](=O)[O-])ccc3c(Nc3ccc(S(=O)(=O)Nc4ncccn4)cc3)c2c1	-1
CC1(C)CC[C@]2(C(=O)O)CC[C@]3(C)[C@H](C(=O)C=C4[C@@]5(C)C=C(C#N)C(=O)C(C)(C)[C@@H]5CC[C@]43C)[C@@H]2C1	1

For CC(O)CN1c2ccccc2Sc2ccc(Cl)cc21 (centres undefined) , what call appears in the results of this test? -1

Source of measurements: ChEMBL document CHEMBL1201862
